- Test system: erythropoietin
- experimental.protocol: In vitro erythropoietin induction (ELISA of cell culture supernatant)
- run.parameters: Homo sapiens, Hep3B, 16 h, read-out: EPO fold induction, Hep3B cell line, 200 uM, 16 hours, relative to vehicle control
The following molecules are shown together with reported fold induction at 200 µM values.
property: fold induction at 200 µM

>>> measured_value("O=C(O)CNC(=O)c1c(O)nc2sc3c(n2c1=O)CCN(C(=O)Cc1ccc(Cl)cc1)C3 [Compound 28]")
"9 to 16"
>>> measured_value("CC(C)[C@H](NC(=O)c1c(O)nc2sc3c(n2c1=O)CCC(C)(C)C3)C(=O)O [Compound 43]")
"< 2"
>>> measured_value("CC(C)(C)C(=O)N1CCc2c(sc3nc(O)c(C(=O)NCC(=O)O)c(=O)n23)C1 [Compound 20]")
"5 to 8"
>>> measured_value("CC(NC(=O)c1c(O)nc2sc3c(n2c1=O)CCC(C)(C)C3)C(=O)O (centres unmarked) [Compound 40]")
"5 to 8"
>>> measured_value("O=C(O)CNC(=O)c1c(O)nc2sc3c(n2c1=O)CCC3 [Compound 11]")
"5 to 8"
>>> measured_value("O=C(O)CNC(=O)c1c(O)nc2sc3c(n2c1=O)CCN(Cc1ccc(C(F)(F)F)cc1)C3 [Compound 52]")
"5 to 8"
>>> measured_value("O=C(O)CNC(=O)c1c(O)nc2sc3c(n2c1=O)CCS(=O)(=O)C3 [Compound 67]")
"2 to 4"
>>> measured_value("O=C(O)CNC(=O)c1c(O)nc2sc3c(n2c1=O)CCN(C(=O)c1ccc(OC(F)(F)F)cc1)C3 [Compound 22]")
"5 to 8"
